Origin of the recorded values: the supplement of paper PMC4862054

Assign normalised response to each entry below.
tested on: CAL-85-1; test: normalised response (% of control), CellTox Green; higher = less cell death (100 = DMSO, 0 = benzethonium chloride kill control); settings: incubation time: 72 h
Provide the reading as a plain figure in %.

Problem: Request the reported normalised response associated with C[C@@H](C(=O)O)c1ccc(-c2ccccc2)c(F)c1 [Tarenflurbil] (1000 nM)
Solution: 87.9

Problem: Request the reported normalised response associated with CC(C)C(=O)Nc1ccc([N+](=O)[O-])c(C(F)(F)F)c1 [Flutamide] (10000 nM)
Solution: 103

Problem: Request the reported normalised response associated with CCCCCOC(=O)Nc1nc(=O)n([C@@H]2O[C@H](C)[C@@H](O)[C@H]2O)cc1F [Capecitabine] (100 nM)
Solution: 105

Problem: Request the reported normalised response associated with Cc1c(C(=O)Nc2ccc(N3C[C@@H](C)O[C@@H](C)C3)nc2)cccc1-c1ccc(OC(F)(F)F)cc1 [Erismodegib] (100 nM)
Solution: 88.8

Problem: Request the reported normalised response associated with CCc1cnn2c(NCc3ccc[n+]([O-])c3)cc(N3CCCC[C@H]3CCO)nc12 [Dinaciclib] (1000 nM)
Solution: 4.91

Problem: Request the reported normalised response associated with O=C(O)CC[C@H]1CC[C@@](c2cc(F)ccc2F)(S(=O)(=O)c2ccc(Cl)cc2)CC1 [MK-0752] (1000 nM)
Solution: 70.6

Problem: Request the reported normalised response associated with CO[C@H]1C[C@@H]2CC[C@@H](C)[C@@](O)(O2)C(=O)C(=O)N2CCCC[C@H]2C(=O)O[C@H]([C@H](C)C[C@@H]2CC[C@@H](O)[C@H](OC)C2)CC(=O)[C@H](C)/C=C(\C)[C@@H](O)[C@@H](OC)C(=O)[C@H](C)C[C@H](C)/C=C/C=C/C=C/1C [Sirolimus] (1 nM)
Solution: 105

Problem: Request the reported normalised response associated with CCCc1cc(C)[nH]c(=O)c1CNC(=O)c1cc(-c2ccnc(N3CCN(C)CC3)c2)cc2c1cnn2C(C)C [GSK343] (100 nM)
Solution: 106

Problem: Request the reported normalised response associated with NC(=O)c1cccc2cn(-c3ccc([C@@H]4CCCNC4)cc3)nc12 [MK-4827] (10000 nM)
Solution: 70.3

Problem: Request the reported normalised response associated with Cn1nnc2c(C(N)=O)ncn2c1=O [Temozolomide] (100 nM)
Solution: 107

Problem: Request the reported normalised response associated with COc1cc2c(N3CCN(C(=O)Nc4ccc(OC(C)C)cc4)CC3)ncnc2cc1OCCCN1CCCCC1 [Tandutinib] (10 nM)
Solution: 99

Problem: Request the reported normalised response associated with CN1CCc2c(c3ccccc3n2Cc2ccc(C(=O)NO)cc2)C1 [Tubastatin A] (100 nM)
Solution: 102

Problem: Request the reported normalised response associated with CC(C)(C)Cn1c(N)nc2ccc(-c3[nH]c(C(C)(C)C)nc3-c3ccc(F)cc3)nc21 (1000 nM)
Solution: 90.7

Problem: Request the reported normalised response associated with CCc1c(C(=O)C(N)=O)c2c(OCC(=O)O)cccc2n1Cc1ccccc1 [Varespladib] (1000 nM)
Solution: 114

Problem: Request the reported normalised response associated with Cc1c(C(=O)Nc2ccc(N3C[C@@H](C)O[C@@H](C)C3)nc2)cccc1-c1ccc(OC(F)(F)F)cc1 [Erismodegib] (10000 nM)
Solution: 85.3

Problem: Request the reported normalised response associated with Cc1c(N)nc([C@H](CC(N)=O)NC[C@H](N)C(N)=O)nc1C(=O)N[C@H](C(=O)N[C@H](C)[C@@H](O)[C@H](C)C(=O)N[C@H](C(=O)NCCc1nc(-c2nc(C(=O)NCCC[S+](C)C)cs2)cs1)[C@@H](C)O)[C@@H](OC1OC(CO)C(O)C(O)C1OC1OC(CO)C(O)C(OC(N)=O)C1O)c1cnc[nH]1 (stereo partly specified) [Bleomycin] (1000 nM)
Solution: 92.7

Problem: Request the reported normalised response associated with Cc1c(N)nc([C@H](CC(N)=O)NC[C@H](N)C(N)=O)nc1C(=O)N[C@H](C(=O)N[C@H](C)[C@@H](O)[C@H](C)C(=O)N[C@H](C(=O)NCCc1nc(-c2nc(C(=O)NCCC[S+](C)C)cs2)cs1)[C@@H](C)O)[C@@H](OC1OC(CO)C(O)C(O)C1OC1OC(CO)C(O)C(OC(N)=O)C1O)c1cnc[nH]1 (stereo partly specified) [Bleomycin] (100 nM)
Solution: 99.8

Problem: Request the reported normalised response associated with CC(C)C[C@H](NC(=O)[C@H](CCc1ccccc1)NC(=O)CN1CCOCC1)C(=O)N[C@@H](Cc1ccccc1)C(=O)N[C@@H](CC(C)C)C(=O)[C@@]1(C)CO1 [Carfilzomib] (10 nM)
Solution: 43.5

Problem: Request the reported normalised response associated with O=C(O)CC[C@H]1CC[C@@](c2cc(F)ccc2F)(S(=O)(=O)c2ccc(Cl)cc2)CC1 [MK-0752] (100 nM)
Solution: 97

Problem: Request the reported normalised response associated with CN1CCN(c2nc(C3=C(c4c[nH]c5ccccc45)C(=O)NC3=O)c3ccccc3n2)CC1 [Sotrastaurin] (10000 nM)
Solution: 128

Problem: Request the reported normalised response associated with Cc1cc2c(F)c(Oc3ncnn4cc(OC[C@@H](C)O)c(C)c34)ccc2[nH]1 [Brivanib] (100 nM)
Solution: 103

Problem: Request the reported normalised response associated with CC/C(=C(\c1ccccc1)c1ccc(OCCN(C)C)cc1)c1ccccc1 [Tamoxifen] (1000 nM)
Solution: 101

Problem: Request the reported normalised response associated with Cc1c(C(=O)Nc2ccc(N3C[C@@H](C)O[C@@H](C)C3)nc2)cccc1-c1ccc(OC(F)(F)F)cc1 [Erismodegib] (1000 nM)
Solution: 104

Problem: Request the reported normalised response associated with COc1cc(Nc2ncc(F)c(Nc3ccc4c(n3)N(COP(=O)(O)O)C(=O)C(C)(C)O4)n2)cc(OC)c1OC [Fostamatinib] (25 nM)
Solution: 106

Problem: Request the reported normalised response associated with CC[C@H](CC#N)OC(=O)N[C@@H](C)c1cccc(NC(=O)Nc2ccc(-c3cnco3)c(OC)c2)c1 [AVN944] (10000 nM)
Solution: 101

Problem: Request the reported normalised response associated with CN1CCN(c2nc(C3=C(c4c[nH]c5ccccc45)C(=O)NC3=O)c3ccccc3n2)CC1 [Sotrastaurin] (1000 nM)
Solution: 106
